Recorded measurements of Dmax, one per entry
- Target Desc: IKZF2 (Homo sapiens, UniProt Q96SW2+Q9UKS7)
- Procedure Summary: Human whole blood IKZF2 degradation (flow cytometry, CD4/CD25/Foxp3+ Treg cells)
- Assay type: cell-based
- Parameters: endogenous in cells
- Measurement Parameters: 24 hrs incubation, IKZF2 MFI in CD4/CD25/Foxp3+ Treg cells, flow cytometry
- Sequence (Q9UKS7 whole entry): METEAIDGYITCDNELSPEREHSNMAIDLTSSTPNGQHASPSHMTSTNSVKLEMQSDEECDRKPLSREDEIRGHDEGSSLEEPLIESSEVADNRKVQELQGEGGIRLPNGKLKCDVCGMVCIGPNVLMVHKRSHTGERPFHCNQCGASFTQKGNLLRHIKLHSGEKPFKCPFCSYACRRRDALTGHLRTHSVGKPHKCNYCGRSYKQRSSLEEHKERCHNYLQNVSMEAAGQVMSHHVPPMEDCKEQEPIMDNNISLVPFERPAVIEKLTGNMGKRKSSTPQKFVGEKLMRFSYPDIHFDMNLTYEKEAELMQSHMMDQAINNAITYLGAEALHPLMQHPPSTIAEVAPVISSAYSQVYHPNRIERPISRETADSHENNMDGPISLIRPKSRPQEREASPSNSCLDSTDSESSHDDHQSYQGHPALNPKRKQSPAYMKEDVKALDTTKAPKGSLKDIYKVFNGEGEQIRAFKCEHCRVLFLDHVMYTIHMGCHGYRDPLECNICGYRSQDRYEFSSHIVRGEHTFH
- Sequence (Q96SW2 whole entry): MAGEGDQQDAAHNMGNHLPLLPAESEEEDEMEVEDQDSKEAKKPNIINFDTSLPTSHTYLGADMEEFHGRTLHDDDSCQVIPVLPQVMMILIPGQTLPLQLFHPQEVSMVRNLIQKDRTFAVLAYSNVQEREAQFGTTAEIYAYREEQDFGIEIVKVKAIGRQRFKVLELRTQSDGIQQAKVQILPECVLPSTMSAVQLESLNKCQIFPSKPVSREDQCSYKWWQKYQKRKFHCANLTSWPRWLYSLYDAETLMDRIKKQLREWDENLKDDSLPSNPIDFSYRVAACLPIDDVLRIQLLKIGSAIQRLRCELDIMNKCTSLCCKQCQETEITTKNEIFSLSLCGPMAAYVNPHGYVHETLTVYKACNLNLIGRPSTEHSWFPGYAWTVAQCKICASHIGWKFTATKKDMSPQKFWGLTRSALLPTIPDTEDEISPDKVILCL
- Sequence (Q16531 whole entry partner): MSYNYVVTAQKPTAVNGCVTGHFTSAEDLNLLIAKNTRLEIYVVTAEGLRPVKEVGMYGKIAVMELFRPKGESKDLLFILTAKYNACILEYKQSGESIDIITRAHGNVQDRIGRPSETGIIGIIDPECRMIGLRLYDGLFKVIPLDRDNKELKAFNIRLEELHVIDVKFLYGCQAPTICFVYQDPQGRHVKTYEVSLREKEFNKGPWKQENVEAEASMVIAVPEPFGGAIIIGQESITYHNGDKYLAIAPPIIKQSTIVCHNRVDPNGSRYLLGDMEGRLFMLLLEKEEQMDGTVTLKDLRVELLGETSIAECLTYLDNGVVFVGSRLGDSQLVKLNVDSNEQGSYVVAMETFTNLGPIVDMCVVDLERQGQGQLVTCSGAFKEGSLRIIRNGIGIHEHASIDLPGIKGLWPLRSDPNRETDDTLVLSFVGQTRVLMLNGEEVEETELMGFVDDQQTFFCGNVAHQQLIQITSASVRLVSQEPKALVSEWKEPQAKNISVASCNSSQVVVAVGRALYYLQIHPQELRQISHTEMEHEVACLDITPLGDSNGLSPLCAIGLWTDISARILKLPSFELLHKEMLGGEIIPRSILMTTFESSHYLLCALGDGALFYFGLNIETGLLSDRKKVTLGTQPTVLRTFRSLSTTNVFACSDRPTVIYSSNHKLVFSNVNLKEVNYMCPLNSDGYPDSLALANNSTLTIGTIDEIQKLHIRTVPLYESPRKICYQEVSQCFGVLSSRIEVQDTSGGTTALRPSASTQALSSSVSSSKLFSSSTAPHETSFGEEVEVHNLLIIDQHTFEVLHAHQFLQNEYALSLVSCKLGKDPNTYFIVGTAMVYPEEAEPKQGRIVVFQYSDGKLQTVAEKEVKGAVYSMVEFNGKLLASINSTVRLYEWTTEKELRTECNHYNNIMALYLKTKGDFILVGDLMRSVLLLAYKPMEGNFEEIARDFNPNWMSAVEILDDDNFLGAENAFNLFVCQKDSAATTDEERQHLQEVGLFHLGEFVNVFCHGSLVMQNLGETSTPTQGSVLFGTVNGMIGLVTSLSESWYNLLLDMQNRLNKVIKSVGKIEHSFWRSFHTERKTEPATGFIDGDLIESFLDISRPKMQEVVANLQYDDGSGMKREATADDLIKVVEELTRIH
Entry rule: numbers only, all in %.

Examples with their reported Dmax follow.
# Compound, Readout Units, Dmax
measured = [
    ("O=C1CCC(N2Cc3cc(C[C@H]4CCCC[C@@H]4NC4CCC(C(F)F)CC4)ccc3C2=O)C(=O)N1 (some centres unmarked) [Example 217]", "%", 89),
    ("COC1CCC(N[C@H]2CCCO[C@@H]2Cc2ccc3c(c2F)CN(C2CCC(=O)NC2=O)C3=O)CC1 (some centres unmarked) [Example 159]", "%", 94),
]

QUERY: # get_value(readout='Dmax', item= O=C1CCC(N2Cc3cc(C[C@H]4CCCC[C@@H]4NC4CCC(C(F)(F)F)CC4)ccc3C2=O)C(=O)N1 (single isomer, unassigned) [Example 122] )
RESULT: 97

QUERY: GET /values?readout=Dmax&item= O=C1CC[C@@H](N2Cc3cc(C[C@H]4CCCC[C@@H]4NC4CCC(F)(F)CC4)ccc3C2=O)C(=O)N1 (single isomer, unassigned) [Example 329]
RESULT: 97

QUERY: Name the reported Dmax value associated with the compound O=C1CCC(N2Cc3c(ccc(C[C@H]4CCCC[C@@H]4NC4CCCC4)c3F)C2=O)C(=O)N1 (some centres unmarked) [Example 87]
RESULT: 95

QUERY: Can you share its Dmax? I mean this compound: CC(CC(C)(C)C)N[C@H]1CCCC[C@@H]1Cc1ccc2c(c1)CN(C1CCC(=O)NC1=O)C2=O (some centres unmarked) [Example 220]
RESULT: 98

QUERY: Can you share its Dmax? I mean this compound: O=C1CCC(N2Cc3cc(C[C@H]4OCCC[C@@H]4NC4CCCCC4)ccc3C2=O)C(=O)N1 (some centres unmarked) [Example 95]
RESULT: 89

QUERY: Tell me the measured Dmax of O=C1CCC(N2Cc3cc(C[C@H]4CCCC[C@@H]4NCC4CC(F)(F)C4)ccc3C2=O)C(=O)N1 (some centres unmarked) [Example 24] , please.
RESULT: 89

QUERY: Requested field: Dmax. Item: CC1(C)CC(N[C@H]2CCCC[C@@H]2Cc2ccc3c(c2)CN(C2CCC(=O)NC2=O)C3=O)CCO1 (some centres unmarked) [Example 109]
RESULT: 97

---

Listing: log10 of DC50 of selected compounds
- Target Desc: IKZF2 (Homo sapiens, UniProt Q96SW2+Q9UKS7)
- Procedure Summary: HEK293 HiBiT in vitro degradation of IKZF2
- Assay type: cell-based
- Design: expressed in transfected cells
- Measurement Parameters: HEK293 HiBiT, 18-24 hr incubation, normalized to DMSO control; read-out: IKZF2 EC50
- Sequence (Q9UKS7 1-500 isoform Q9UKS7-2): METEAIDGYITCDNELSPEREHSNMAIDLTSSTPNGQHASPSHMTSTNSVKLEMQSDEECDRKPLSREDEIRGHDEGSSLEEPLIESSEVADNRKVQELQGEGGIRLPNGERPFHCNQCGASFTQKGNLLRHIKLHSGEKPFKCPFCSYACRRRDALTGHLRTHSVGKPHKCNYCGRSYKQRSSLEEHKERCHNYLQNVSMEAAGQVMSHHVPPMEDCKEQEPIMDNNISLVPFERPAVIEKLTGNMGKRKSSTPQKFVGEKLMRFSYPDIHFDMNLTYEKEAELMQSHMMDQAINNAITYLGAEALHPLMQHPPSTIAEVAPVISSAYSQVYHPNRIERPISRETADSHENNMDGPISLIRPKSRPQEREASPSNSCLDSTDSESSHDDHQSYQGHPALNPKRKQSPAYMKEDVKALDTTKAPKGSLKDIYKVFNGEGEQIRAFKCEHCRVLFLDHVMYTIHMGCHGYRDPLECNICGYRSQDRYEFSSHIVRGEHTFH
- Sequence (Q96SW2 whole entry): as the sequence (Q96SW2 whole entry) above
- Sequence (Q16531 whole entry partner): as the sequence (Q16531 whole entry partner) above
Please be aware that the numbers have been log10-transformed from DC50 in nM.

# Compound, log10 of DC50
measured = [
    ("O=C1CCC(N2Cc3c(ccc(C[C@H]4CCCC[C@@H]4NCC4CC(F)(F)C4)c3F)C2=O)C(=O)N1 (stereo partly drawn) [Example 81]", 0.60),
    ("CCC(C)N[C@H]1CCCO[C@@H]1Cc1ccc2c(c1F)CN(C1CCC(=O)NC1=O)C2=O (stereo partly drawn) [Example 304]", 0.48),
    ("O=C1CCC(N2Cc3cc(C[C@H]4CCCC[C@@H]4N[C@@H]4CCC(F)(F)C4)ccc3C2=O)C(=O)N1 (relative stereo) [Example 302]", 1.18),
]

QUERY: Using the record for O=C1CCC(N2Cc3cc(C[C@H]4CCCC[C@@H]4NC4CCCCC4(F)F)ccc3C2=O)C(=O)N1 (stereo partly drawn) [Example 111] , report its log10 of DC50.
RESULT: 1.96

QUERY: Can you look up the measured log10 of DC50 of O=C1CCC(N2Cc3c(ccc(C[C@H]4CCCC[C@@H]4NC4CCCCC4)c3F)C2=O)C(=O)N1 (stereo partly drawn) [Example 88] for me?
RESULT: 0.00

QUERY: Param item = CO[C@H]1CC[C@H](Cc2ccc3c(c2)CN(C2CCC(=O)NC2=O)C3=O)[C@@H](NC2CCC(F)(F)CC2)C1 (stereo partly drawn) [Example 344] ; retrieve measured log10 of DC50.
RESULT: 0.78

QUERY: Which log10 of DC50 is listed for O=C1CCC(N2Cc3c(ccc(C[C@H]4OCCC[C@@H]4NC4CCCC4)c3F)C2=O)C(=O)N1 (stereo partly drawn) [Example 148] ?
RESULT: 0.85

QUERY: Look up log10 of DC50: O=C1CCC(N2Cc3cc(C[C@H]4CCCC[C@@H]4NC4CCC(C(F)(F)F)CC4)ccc3C2=O)C(=O)N1 (single isomer, unassigned) [Example 121]
RESULT: 0.48

QUERY: Would you mind telling me what log10 of DC50 value was observed for O=C1CCC(N2Cc3cc(C[C@H]4OCCC[C@@H]4NC4CCC(F)(F)CC4)ccc3C2=O)C(=O)N1 (stereo partly drawn) [Example 92] ?
RESULT: 1.64

QUERY: Entry CCN[C@H]1CCCC[C@@H]1Cc1ccc2c(c1)CN(C1CCC(=O)NC1=O)C2=O (stereo partly drawn) [Example 35] has what log10 of DC50?
RESULT: 1.46

QUERY: Data request, read-out log10 of DC50, for O=C1CCC(N2Cc3cc(C[C@H]4CCC[C@H](O)[C@@H]4NC4CCC(F)(F)CC4)ccc3C2=O)C(=O)N1 (single isomer, unassigned) [Example 151]
RESULT: 1.34

QUERY: Looking for the measured log10 of DC50 of CC(N[C@H]1CCCO[C@@H]1Cc1ccc2c(c1F)CN(C1CCC(=O)NC1=O)C2=O)C1CCC1 (single isomer, unassigned) [Example 248] , can you help?
RESULT: 1.32

---

- Target Desc: IKZF1 (Homo sapiens, UniProt Q13422+Q96SW2)
- Construct: expressed in transfected cells
- Sequence (Q13422 whole entry): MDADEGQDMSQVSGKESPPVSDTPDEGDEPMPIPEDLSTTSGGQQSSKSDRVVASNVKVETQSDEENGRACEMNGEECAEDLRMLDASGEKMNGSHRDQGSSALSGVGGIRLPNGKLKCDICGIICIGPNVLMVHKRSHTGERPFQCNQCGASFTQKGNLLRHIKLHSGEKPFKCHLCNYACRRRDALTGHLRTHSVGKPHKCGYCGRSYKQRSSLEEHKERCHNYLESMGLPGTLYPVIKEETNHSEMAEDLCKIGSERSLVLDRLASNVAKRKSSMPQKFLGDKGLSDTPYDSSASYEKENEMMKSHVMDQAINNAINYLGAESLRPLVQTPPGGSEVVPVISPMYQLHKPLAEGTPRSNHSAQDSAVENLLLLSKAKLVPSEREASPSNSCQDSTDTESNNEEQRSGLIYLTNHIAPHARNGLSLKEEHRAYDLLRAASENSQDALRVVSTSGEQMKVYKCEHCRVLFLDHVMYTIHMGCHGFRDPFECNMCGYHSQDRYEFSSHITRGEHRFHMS
- Sequence (Q96SW2 whole entry): as the sequence (Q96SW2 whole entry) above
- Sequence (Q16531 whole entry partner): as the sequence (Q16531 whole entry partner) above
- Procedure Summary: HEK293 HiBiT in vitro degradation of IKZF1
- Type: cell-based
- Measurement Parameters: HEK293, HEK293 HiBiT; maximum degradation at the highest concentration tested
Form field: Dmax (one value per entry).
Answer in %, number only, no unit symbol.

# Compound, Dmax (%)
records = [
    ("[2H]C1(N[C@H]2CCCC[C@@H]2Cc2ccc3c(c2F)CN(C2CCC(=O)NC2=O)C3=O)CCC(F)(F)CC1 (stereo partly shown)", 62),
    ("CC1(C)CC2(CC(N[C@H]3CCCC[C@@H]3Cc3ccc4c(c3)CN(C3CCC(=O)NC3=O)C4=O)C2)C1 (stereo partly shown)", 34),
    ("O=C1CC[C@@H](N2Cc3c(ccc(C[C@H]4CCCC[C@@H]4NC4CCC(F)(F)CC4)c3F)C2=O)C(=O)N1 (single isomer, unassigned)", 62),
    ("CO[C@H]1CC[C@H](Cc2ccc3c(c2)CN(C2CCC(=O)NC2=O)C3=O)[C@@H](NC2CCC(F)(F)CC2)C1 (stereo partly shown)", 51),
    ("O=C1CCC(N2Cc3cc(C[C@H]4CCCC[C@@H]4NC4CC5CCC5C4)ccc3C2=O)C(=O)N1 (stereo partly shown)", 45),
    ("O=C1CCC(N2Cc3c(ccc(C[C@H]4OCCC[C@@H]4NC4CCC(OC(F)F)CC4)c3F)C2=O)C(=O)N1 (single isomer, unassigned)", 40),
]

QUERY: # query: Dmax of entry [2H]C1(N[C@H]2CCCC[C@@H]2Cc2ccc3c(c2)CN(C2CCC(=O)NC2=O)C3=O)CC(C)(C)C1 (stereo partly shown)
RESULT: 22

QUERY: // returns reported Dmax for input O=C1CCC(N2Cc3cc(C[C@H]4CCCC[C@@H]4NCC4CCC(F)(F)CC4)ccc3C2=O)C(=O)N1 (stereo partly shown)
RESULT: 46

QUERY: Sample O=C1CCC(N2Cc3cc(C[C@H]4CCCC[C@@H]4NC4CCOCC4)ccc3C2=O)C(=O)N1 (stereo partly shown) — what was its Dmax?
RESULT: 55

QUERY: So what's the measured Dmax for this one? CC(C)(C#N)CCN[C@H]1CCCC[C@@H]1Cc1ccc2c(c1)CN(C1CCC(=O)NC1=O)C2=O (stereo partly shown)
RESULT: 30

QUERY: Fill in the blank: the reported Dmax of O=C1CCC(N2Cc3cc(C[C@H]4CCCC[C@@H]4NC4CCC45COC5)ccc3C2=O)C(=O)N1 (single isomer, unassigned) is ____.
RESULT: 33

QUERY: Requested read-out: Dmax. Entry: O=C1CC[C@H](N2Cc3c(ccc(C[C@H]4CCCC[C@@H]4NC4CCC(F)(F)CC4)c3F)C2=O)C(=O)N1 (single isomer, unassigned)
RESULT: 59

QUERY: What does the data say about its Dmax? Entry: CC1(C)CC(N[C@H]2CCCC[C@@H]2Cc2ccc3c(c2)CN(C2CCC(=O)NC2=O)C3=O)CC(C)(C)O1 (stereo partly shown)
RESULT: 26

QUERY: Dmax for [2H]C1(N[C@H]2CCCC[C@@H]2Cc2ccc3c(c2)CN(C2CCC(=O)NC2=O)C3=O)CCC(F)(F)CC1 (stereo partly shown) ?
RESULT: 54

QUERY: For O=C1CCC(N2Cc3cc(C[C@H]4CCCC[C@@H]4NCC4CC4)ccc3C2=O)C(=O)N1 (stereo partly shown) , what is its reported Dmax?
RESULT: 34

QUERY: Requested field: Dmax. Item: CC(N[C@H]1CCCC[C@@H]1Cc1ccc2c(c1)CN(C1CCC(=O)NC1=O)C2=O)C1CC1 (stereo partly shown)
RESULT: 27

QUERY: Which Dmax is listed for O=C1CCC(N2Cc3cc(C[C@H]4CCCC[C@@H]4NC4CCOc5ccccc54)ccc3C2=O)C(=O)N1 (stereo partly shown) ?
RESULT: 46

QUERY: Can you share its Dmax? I mean this compound: O=C1CC[C@@H](N2Cc3cc(C[C@H]4CCCC[C@@H]4NC4CCC(F)(F)CC4)ccc3C2=O)C(=O)N1 (single isomer, unassigned)
RESULT: 53

QUERY: Could you tell me which Dmax is on file for O=C1CCC(N2Cc3cc(C[C@H]4CCCC[C@@H]4NCc4cscn4)ccc3C2=O)C(=O)N1 (stereo partly shown) ?
RESULT: 33
